Measured Fold Difference (Control IC50), listed per entry for reference.
# Substrate: F protein of wild type RSV A/Long (respiratory syncytial virus, strain A/Long) (UniProt P12568)
# Sequence (P12568 26-574): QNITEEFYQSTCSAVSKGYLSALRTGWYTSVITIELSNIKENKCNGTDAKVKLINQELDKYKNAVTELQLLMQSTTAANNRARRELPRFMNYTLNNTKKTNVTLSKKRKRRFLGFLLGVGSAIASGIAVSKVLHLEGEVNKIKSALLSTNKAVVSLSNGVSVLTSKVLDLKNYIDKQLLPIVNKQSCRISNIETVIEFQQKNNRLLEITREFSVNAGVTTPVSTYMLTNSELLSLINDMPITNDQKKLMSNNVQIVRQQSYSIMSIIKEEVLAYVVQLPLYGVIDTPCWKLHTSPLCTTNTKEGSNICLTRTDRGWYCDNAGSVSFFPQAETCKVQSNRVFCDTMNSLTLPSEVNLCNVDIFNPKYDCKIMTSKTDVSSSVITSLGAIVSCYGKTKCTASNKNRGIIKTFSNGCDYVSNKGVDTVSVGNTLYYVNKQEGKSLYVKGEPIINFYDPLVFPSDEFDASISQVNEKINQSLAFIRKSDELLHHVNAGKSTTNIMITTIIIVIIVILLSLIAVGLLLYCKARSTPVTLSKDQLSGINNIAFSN
# protocol-description: cell-based or functional assay
Write it as a number; the unit fold goes unstated.

1) A1h5 (Fab) (Fab, V domains shown) VH: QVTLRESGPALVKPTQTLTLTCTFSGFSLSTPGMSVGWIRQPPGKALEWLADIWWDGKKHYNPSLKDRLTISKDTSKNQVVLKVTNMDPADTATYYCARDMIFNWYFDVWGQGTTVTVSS VL: DIQMTQSPSTLSASVGDRVTITCSLSSSVGYMHWYQQKPGKAPKLLIYDTFFHRSGVPSRFSGSGSGTEFTLTISSLQPDDFATYYCFQGSGYPFTFGGGTKLEIK
3

Would you mind telling me what Fold Difference (Control IC50) value was observed for A17d4 (Fab) (Fab, V domains shown) VH: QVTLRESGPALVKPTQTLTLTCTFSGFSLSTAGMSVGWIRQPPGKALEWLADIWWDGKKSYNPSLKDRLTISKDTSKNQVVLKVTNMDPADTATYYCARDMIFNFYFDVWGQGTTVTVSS VL: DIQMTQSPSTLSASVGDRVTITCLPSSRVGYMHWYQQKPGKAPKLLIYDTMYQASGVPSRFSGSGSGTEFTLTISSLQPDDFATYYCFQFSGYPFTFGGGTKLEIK ?
31

// returns reported Fold Difference (Control IC50) for input A8c7 (Fab) (Fab, V domains shown) VH: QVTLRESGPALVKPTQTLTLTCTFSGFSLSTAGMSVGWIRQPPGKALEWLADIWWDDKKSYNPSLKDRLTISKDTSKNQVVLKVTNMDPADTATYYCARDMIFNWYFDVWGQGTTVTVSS VL: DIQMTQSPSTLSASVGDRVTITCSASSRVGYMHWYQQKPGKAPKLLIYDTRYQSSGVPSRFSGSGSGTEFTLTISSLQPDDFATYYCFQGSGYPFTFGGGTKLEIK
34

So what's the measured Fold Difference (Control IC50) for this one? A4B4 (Fab) (Fab, V domains shown) VH: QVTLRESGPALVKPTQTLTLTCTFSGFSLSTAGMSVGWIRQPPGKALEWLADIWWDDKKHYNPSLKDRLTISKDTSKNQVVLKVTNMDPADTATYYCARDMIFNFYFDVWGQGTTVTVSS VL: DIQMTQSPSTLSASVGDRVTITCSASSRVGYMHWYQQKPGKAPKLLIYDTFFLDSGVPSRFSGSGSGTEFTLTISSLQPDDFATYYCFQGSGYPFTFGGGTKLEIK
13
